B1: OR4K15 (parent)
chain: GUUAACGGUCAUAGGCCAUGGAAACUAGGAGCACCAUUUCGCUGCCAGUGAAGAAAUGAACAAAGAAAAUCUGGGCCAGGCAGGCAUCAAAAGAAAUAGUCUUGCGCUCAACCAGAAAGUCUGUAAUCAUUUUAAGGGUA

# Variants of: B1
# test: self-cleavage, relative activity (ratio to wild type); higher = more cleavage; in vitro, sequencing; the parent is a self-cleaving ribozyme
Threshold rule: self-cleavage greater than or equal to 0.8 is Yes; below that, No.

seq-string	group
GUUAACGGUCAUAGGCCAUGGAAACUAGGAGCACCAUUUCGCUGCCAGUGAAGAAAUGAACAAAGAAAAUCUGGGCCAGGCAGGCAUCAAAAAAAAUAGUCUUGCGCUCAACCAGAAAGUCUGUAAUCAUUUUAGGGGUA [G93A A135G]	Yes
GUUAACGGUCAUAGGCCAUGGAAACUAGGAGCACCAUUUCGCUGCCAGUGAAGAAAUGAACAAAGAAAAUCUGGGCCUGGCAGGCAUCAAAAGAAAUAGUCUUGCGCUCAACCAGAAAGUCUGUAAUCAUUUUAGGGGUA [A78U A135G]	No
GUUAACGGUCAUAGGCCAUGGAAACUAGGAGCACCAUCUCGCUGCCAGAGAAGAAAUGAACAAAGAAAAUCUGGGCCAGGCAGGCAUCAAAAGAAAUAGUCUUGCGCUCAACCAGAAAGUCUGUAAUCAUUUUAAGGGUA [U38C U49A]	Yes
GUUAACGGUCAUAGGCCAUGGAAACUAGGAGCACCAUUUCGCUGCCAGUGGAGAAAUGAACAAAGAAAAUCUGGGCCAGGCAGGCAUCAAAAGAAAUAGUCUUGCGCUCAACCAGAAAGUCUGUAAUCAUGUUAAGGGUA [A51G U131G]	Yes
GUUAACGGUCAUAGGCCAUGGAAACUAGGAGCACCAUUUCGCCGCCAGUGAAGAAAUGAACAAAGAAAAUCUGGGCCAGGCAGGCAUCAAAAGAAAUAGUCUUGCGCUCAACCAGAAAGUCUGUUAUCAUUUUAAGGGUA [U43C A125U]	Yes
GUUAACGGUCAUAGGCCAUGGAAACUAGGAGCACCAUUCCGCUGCCAGUGAAGAAAUGAACAAAGAAAAUCUGGGCCAGGCAGGCAUCGAAAGAAAUAGUCUUGCGCUCAACCAGAAAGUCUGUAAUCAUUUUAAGGGUA [U39C A89G]	Yes
GUUAACGGUCAUAGGCCAUGGAAACUGGGAGCACCAUUUCGCUGCCAGUGAAGAAAUGAACAAAGAAAAUCUGGGCCAGGCAGGCAUCAAAAGAUAUAGUCUUGCGCUCAACCAGAAAGUCUGUAAUCAUUUUAAGGGUA [A27G A95U]	Yes
GUUAACGGUCAUAGGCCAUGGAAACUAGGAGCACCAUUUCGCUGCCAGAGGAGAAAUGAACAAAGAAAAUCUGGGCCAGGCAGGCAUCAAAAGAAAUAGUCUUGCGCUCAACCAGAAAGUCUGUAAUCAUUUUAAGGGUA [U49A A51G]	Yes
GUUAACGGUCAUAGGCCAUGGAAACUAGGGGCACCAUUUCGCUGCCAGUGAAGAAAUGAACAAAGAAAAUCUGGGCCAGGCAGGCAUCAAAAGAAAUAGUCUUGCGCUCAACCAGAAAGUCUGUAAUCAUUUUAAGGGCA [A30G U139C]	Yes
GUUAACGGUCAUAGGCCAUGGAAACUAGGAGCACCAUAUCGCUGCCAGUGAAGAAAUGAACAAAGAAAAUCUGGGCCAGGCAGGCAUCAAAAGAAAUAGUCUUGCGCUCAACCGGAAAGUCUGUAAUCAUUUUAAGGGUA [U38A A114G]	Yes
GUUAACGGUCAUAGGCCAUGGAAACUAGGAGCACCAUUUCGCUGCCAGUGAAGAAAUGAACAAAGAAAAUCUGGGCCAGGCAGGCAUCAAAAGAUAUAGUCUUGCGCUCAACCAGAAUGUCUGUAAUCAUUUUAAGGGUA [A95U A118U]	No
GUUAUCGGUCAUAGGCCAUGGAAACUAGGAGCACCAUUUCGCUGCCAGUGAAGAAAUGAACAAAGAAAAUCUGGGCCAGGCAGGCAUCAAAAGAAAUAGUCUUGCGCUCAACCAGAAAGUCUGUAACCAUUUUAAGGGUA [A5U U127C]	Yes
GUUAACGGUCAUAGGCCAUGGAAACUAGGAGCACCAUUUCGCUGCCAGUGAAGAAACGAACAAAGAAAAUCUGGGUCAGGCAGGCAUCAAAAGAAAUAGUCUUGCGCUCAACCAGAAAGUCUGUAAUCAUUUUAAGGGUA [U57C C76U]	No
GUUAACGGUCAUAGGCCAUGGAAACUAGGAGCACCAUUUCGCUGCCAGUGAAGAAAAGAACAAAGAAAGUCUGGGCCAGGCAGGCAUCAAAAGAAAUAGUCUUGCGCUCAACCAGAAAGUCUGUAAUCAUUUUAAGGGUA [U57A A69G]	Yes
GUUAACGGUCAUAGGCCAUGGAAACUAGGAGCACCAUUUCGCUGCCAGUGAAGAAAUGAAUAAAGAAAAUCUGGGCCAGGCAGGCGUCAAAAGAAAUAGUCUUGCGCUCAACCAGAAAGUCUGUAAUCAUUUUAAGGGUA [C61U A86G]	Yes
GUUAACGGUCAUAGGCCAUGGAAACUAGGAGCACCAUUUCGCUGCCAGUGAAGAAAUUAACAAAGAAAAUCUGGGCCAGGCAGGCAUCAAAAGAAAUAGUCUUGCGCUCAGCCAGAAAGUCUGUAAUCAUUUUAAGGGUA [G58U A111G]	No
GUUAACGGUCAUAGGCCAUGGAAACUAGGAGCACCACUUCGCUGCCAGUGAAGAAAUGAACAAAGAAAAUCUGGGCCAGGCAGGCAUCAAGAGAAAUAGUCUUGCGCUCAACCAGAAAGUCUGUAAUCAUUUUAAGGGUA [U37C A91G]	Yes
GUUAACGGUCAUAGGCCAUGGAAACUAGGAGCACCAUUUCGCUGCCAGUGAAGAAAUGAACAAAGAUAAUCUGGGCCAGGCAGGCAUCAAAAGAAAUAGUCUUGCGCUCAACCAGAGAGUCUGUAAUCAUUUUAAGGGUA [A67U A117G]	Yes
GUUAACGGUCAUAGGCCAUGGAAACUAGGAGCACCAUUUCGCUGCCAGUGAAGUAAUGAACAAAGAAAAUCUGGGCCAGGCAGGCAUCAAAAGAAAUAGUCCUGCGCUCAACCAGAAAGUCUGUAAUCAUUUUAAGGGUA [A54U U102C]	Yes
GUUAACGGUCAUAGGCCAUGGAAACUAGGAGCACCAUUUCGCUGCCAGUGGAGAAAUGAACAAAGAAAAUCUGGGCCAGGCAGGCAUCAAAAGAAAUAGUCUUGUGCUCAACCAGAAAGUCUGUAAUCAUUUUAAGGGUA [A51G C105U]	No
GUUAACGGCCAUAGGCCAUGGAAACUAGGAGCACCAUUUCGCUGCCAGUGAAGAAAUGAACAAAGAAAAUCUGGGCCAGGCAAGCAUCAAAAGAAAUAGUCUUGCGCUCAACCAGAAAGUCUGUAAUCAUUUUAAGGGUA [U9C G83A]	Yes
GUUAACGGUCAUAGGCCAUGGAAACUAGGAGCACCAUUUCGCUGCCAGUGAAGAAAUGAACAAAGAAAAUCUGGGCCAGGCAGGCAUCAAAAGAAAUAGUCUAGCGCUCAACCUGAAAGUCUGUAAUCAUUUUAAGGGUA [U103A A114U]	No
GUUAACGGUCAUAGGCCAUGGAAACUAGGAGCACCAUUUCGCUGCCAGUGAAGAAAUGAACAAAGAAAAUCUGGGCCAGGCAGGCAUCAAAAGGAAUAGUCUUGCGCUCAACCAGAAAGUCUGUGAUCAUUUUAAGGGUA [A94G A125G]	No
GUUAAUGGUCAUAGGCCAUGGAAACUAGGAGCACCAUCUCGCUGCCAGUGAAGAAAUGAACAAAGAAAAUCUGGGCCAGGCAGGCAUCAAAAGAAAUAGUCUUGCGCUCAACCAGAAAGUCUGUAAUCAUUUUAAGGGUA [C6U U38C]	Yes
GUUAACGGUCAUAGGCCAUGGAAACUAGGAGCACCAUUUCGCUGCCAGUGAAGAAAUGAACAAAGAAAAUCUGGGCCAGGCAGGCAUCAAAAGAAAUAGACUUGCGCUCAACCUGAAAGUCUGUAAUCAUUUUAAGGGUA [U100A A114U]	No
GUUAACGGUCAUAGGCCAUGGAAACUAGGAGCACCAUUCCGCUGCCAGUGAAGAAAUGAACAAAGAAAAUCUGGGCCAGGCAGGCAUCAAAAGAAAUAGUCUUGCGCUCAACCAGAAAGUCUGUGAUCAUUUUAAGGGUA [U39C A125G]	No
GUUAACGGGCAUAGGCCAUGGAAACUAGGAGCACCAUUUCGCUGCCAGUGAAGAAAUGAACAAAGAAAAUCUGGGCCAGGCAAGCAUCAAAAGAAAUAGUCUUGCGCUCAACCAGAAAGUCUGUAAUCAUUUUAAGGGUA [U9G G83A]	Yes
GUUAACGGUCAUAAGCCAUGGAAACUAGGAGCACCAUUUCGCUGCCAGUGAAGAAAUGAACAAAGAAAAUCUGGGCCAGGCAGGCAUCAAGAGAAAUAGUCUUGCGCUCAACCAGAAAGUCUGUAAUCAUUUUAAGGGUA [G14A A91G]	Yes
GUUAACGGUCAUAGGCCAUGGAAACUAGGAGCACCACUUCGCUGCCUGUGAAGAAAUGAACAAAGAAAAUCUGGGCCAGGCAGGCAUCAAAAGAAAUAGUCUUGCGCUCAACCAGAAAGUCUGUAAUCAUUUUAAGGGUA [U37C A47U]	No
GUUAACGGUCAUAGGCCAUGGAAACUAGGAGCACCAUUUCGCUGCCAGUGAAGAAAUGAACAAAGAAAAUCUGCGCCAGGCAGGCAUCAAAAGAAAUAGUCUUGCGCUCAACCAGAAAGUCUGUAACCAUUUUAAGGGUA [G74C U127C]	No
GUUAACGGUCAUAGGCCAUGGAAACUAGGAGCACCAUUUCGCUGCCAGUGAAGAAAUGAACAAAGAAAAUCCGGGCCAGGCAGGCAUCAAAAGAAAUAGUCUUGCGCUCAACCAGAAAGUCUGUAAUCAUUUUAAAGGUA [U72C G136A]	No
GUUACCGGUCAUAGGCCAUGGAAACUAGGAGCACCAUUUCGCUGCCAGUGAAGAAAUGAACAAAGAAAAUCUGGGCCAGGCAGGCAUCAAAAGAGAUAGUCUUGCGCUCAACCAGAAAGUCUGUAAUCAUUUUAAGGGUA [A5C A95G]	Yes
GUUAACGGUCACAGGCCAUGGAAACUAGGAGCACCAUUUCGCUGCCAGUGAAGAAAUGAACAAAGAAAAUCUGGGCCAGGCAGGCAUCAAAAGAAAUAGUCUUGCGCUCAACCAGAAAGUCUGUGAUCAUUUUAAGGGUA [U12C A125G]	No
GUUAACGGUCAUAGGCCAUGGAAACUAGGAGCACCAUUUCGCUGCCAGAGAAGAAAUGAACAAAGAAAAUCUGGGCCAGGCAGGCAUCAAAAGAAAUAGUCUUGCGCUCAACCAGAAUGUCUGUAAUCAUUUUAAGGGUA [U49A A118U]	No
GUUAACGGUCAUAGGCCAUGGAAACUAGGAGCACCAUUUCGCUGCCAGUGAAGAAAUGAACAAAGAAAAUCUGGGCCAGGCAGGCUUCAAAAGAAAUAGUCUUGCGCCCAACCAGAAAGUCUGUAAUCAUUUUAAGGGUA [A86U U108C]	No
GUUAACGGUCAUAGGCCAUGGAAACUAGGAGCACCAUUUCGCUGCCAGUGAAGAAAUGAACAAAGAAAAUCUGGGCCAGGCGGGCAUCAAAAGAAAUAGUCUUGCCCUCAACCAGAAAGUCUGUAAUCAUUUUAAGGGUA [A82G G106C]	No
GUUAACGGUCAUAGGCCAUGGAACCUAGGAGCACCAUUUCGCUGCCAGUGAAGAAAUGAACAAAGAAAAUCUGGGCCAGGCAGGCAUCAGAAGAAAUAGUCUUGCGCUCAACCAGAAAGUCUGUAAUCAUUUUAAGGGUA [A24C A90G]	No
GUUAACGGUCAUAGGCCAUGGAAACUAGGAGCACCAUUUCGCUGCCAGUGAAGAAAAGAACAAAGAAAAUCUGGGCCAGGCAGGCAUCAAAAGAAAUAGUCUUGUGCUCAACCAGAAAGUCUGUAAUCAUUUUAAGGGUA [U57A C105U]	No
GUUAACGGUCAUAGGCCAUGGAAACUAGGAGCACCAUUUCGCUGCCAGUGAAGAAAUGAACAAAGAAAAUCUGGGCCAGGCAGGCAUCAAAAGAAAUAGUCUUGCGCUCGACCAGAAAGUCUGUAAUCAUUUUAAGAGUA [A110G G137A]	No
GUUAACGGUCAUAGGCCAUGGAAACUAGGAGCACCAUUUCGCUGCCAGUGAAGAAAUGAACAAAGGAAAUCUGGGACAGGCAGGCAUCAAAAGAAAUAGUCUUGCGCUCAACCAGAAAGUCUGUAAUCAUUUUAAGGGUA [A66G C76A]	No
GUUAACGGUCAUAGGCCAUGGAAGCUAGGAGCACCAUUUCGCUGCCAGUGAAGAAAUGAACAAAGAAAAUCUGGGCCAGGCAGGCAUCAAAAGAAAUAGUCUUGCGCUAAACCAGAAAGUCUGUAAUCAUUUUAAGGGUA [A24G C109A]	No
GUUAACGGUCAUAGGCCAUGGAAACUAGGAGCACCAUUUCGCUGCCAGUAAAGAAAUGAACAAAGAAAAUCUGGGCCAGGCAGGCAUCAAAAGAAAUAGUCUUACGCUCAACCAGAAAGUCUGUAAUCAUUUUAAGGGUA [G50A G104A]	No
GUUAGCGGUCAUAGGCCAUGGAAACUAGGAGCACCAUUUCGCUGCCAGUGAAGAAAUGAACAAAAAAAAUCUGGGCCAGGCAGGCAUCAAAAGAAAUAGUCUUGCGCUCAACCAGAAAGUCUGUAAUCAUUUUAAGGGUA [A5G G65A]	Yes
GUUAACGGUCAUAGGCCAUGGAAACUAGGAGCACCAUUUCGCUGCCAGUGAAGAAAUGAACAAAGAAAAUCUGGGCCAGGCAGGCAUCAAAAGAAAUAGUCUUGCGCUCAACCAGAGGGUCUGUAAUCAUUUUAAGGGUA [A117G A118G]	No

Provenance of the data: the RNAGym collection of RNA variant scans (doi:10.7554/elife.90254)
